system_tested: c-Src SH2
assay_explanation: SH2 binding enrichment of the phosphorylated peptide, bacterial display (enrichment ratio); higher = better substrate or ligand; peptides without Tyr show the background
experimental_readout: SH2 binding enrichment
Note: the reply should be a number with no unit written.

monomer_sequence: PQAVTYATVKH [LILRB4_Y360_K362T]
system_tested: c-Src SH2
SH2 binding enrichment: 3.11
--
monomer_sequence: YMRGMYFRMTD [PLA2G6_Y541_K545T]
system_tested: c-Src SH2
SH2 binding enrichment: 1.2
--
monomer_sequence: ANVIHYFPTQA [SLC25A4_Y81_R80H]
system_tested: c-Src SH2;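 note: peptide library displayed on the E. coli surface as eCPX fusions, selected cells deep-sequenced, score is each peptide's frequency after selection divided by its frequency in the input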
SH2 binding enrichment: 0.435

Ask: If you can, please state the reported SH2 binding enrichment value of LHRAHYDLHHT [AHSG_Y314_R317H] .
Result: 1.86

Ask: // returns reported SH2 binding enrichment for input AFGTVYKGLWI [EGFR_Y727]
Result: 0.628

Ask: Query (sequence): HSKGIYYVQLE [MGAT4B_Y262_Q257H] ; field requested: SH2 binding enrichment
Result: 1.31

Ask: Field request: SH2 binding enrichment | item: GYRVCYTPDSR [PTPRF_Y451_Y450C]
Result: 0.591

Ask: Given CTTIHYNYRCN [TP53_Y234_M237R] , state its recorded SH2 binding enrichment.
Result: 1.36
